- TEST TARGET: periodontal cyclooxygenase
- TEST DESCRIPTION: Inhibition of cyclooxygenase products (14C arachidonic acid incorporation) in inflamed human gingival tissue homogenate
- Type: biochemical
- ASSAY SETUP: calculated from percent inhibition at several concentrations
READOUT NAME: pIC50
The quantity pIC50 is defined as the negative base-10 logarithm of the molar concentration.

Lab request: please report pIC50 under test system periodontal cyclooxygenase for CC(C)Cc1ccc(C(C)C(=O)O)cc1 (stereo not shown) [ibuprofen]
4.82
